The origin of these recorded values is patent US20200405697A1.

molecular target: human RNR (histidine tagged human M1 and human M2 proteins) (Homo sapiens)
outcomeMeasure: pIC50
Just the number, please; pIC50 means minus log10 of the concentration in mol/L.

The measured pIC50 that COc1cc(Cl)ccc1S(=O)(=O)N[C@H](c1n[nH]c(=O)o1)[C@H](C)c1c(F)ccc(-c2cnn(C3CC3)c2)c1C showed for human RNR (histidine tagged human M1 and human M2 proteins) (Homo sapiens) is 6.66

Summary line: Cc1cc(F)c(F)c([C@@H](C)[C@H](NS(=O)(=O)c2ccc(Cl)cc2C(N)=O)c2n[nH]c(=O)o2)c1C , human RNR (histidine tagged human M1 and human M2 proteins) (Homo sapiens), reported pIC50 = 6.85

Response field pIC50 (human RNR (histidine tagged human M1 and human M2 proteins) (Homo sapiens)) for item Cc1c(Cl)ccc(F)c1[C@@H](C)[C@H](NS(=O)(=O)c1ccc(Cl)c2c1OCCC2(C)O)c1n[nH]c(=O)o1 (single isomer, unassigned) [Example 209A] : 7.00

Note to self: pIC50 of COc1cc(Cl)ccc1S(=O)(=O)N[C@H](c1n[nH]c(=O)o1)[C@H](C)c1c(F)ccc2ccccc12 with human RNR (histidine tagged human M1 and human M2 proteins) (Homo sapiens) was 6.70

Value (pIC50, human RNR (histidine tagged human M1 and human M2 proteins) (Homo sapiens)) for record Cc1ccc(F)c([C@@H](C)[C@H](NS(=O)(=O)c2ccc(Cl)c3c2OCCC3(C)O)c2n[nH]c(=O)o2)c1C (single isomer, unassigned) [Example 207A] = 6.89

Reported pIC50 (human RNR (histidine tagged human M1 and human M2 proteins) (Homo sapiens)) for entry Cc1ccc(F)c([C@@H](C)[C@H](NS(=O)(=O)c2ccc(Cl)cc2C#N)c2n[nH]c(=O)o2)c1C is 6.44

# COc1cc(Br)ccc1S(=O)(=O)N[C@H](c1n[nH]c(=O)o1)[C@H](C)c1cccc2c1CCC2 with human RNR (histidine tagged human M1 and human M2 proteins) (Homo sapiens): pIC50 is 6.23

Summary: Cc1ccc(F)c([C@@H](C)[C@H](NS(=O)(=O)c2cc(OCC(F)F)ccc2C(N)=O)c2n[nH]c(=O)o2)c1C , human RNR (histidine tagged human M1 and human M2 proteins) (Homo sapiens), pIC50 = 7.15

# pIC50 measured on human RNR (histidine tagged human M1 and human M2 proteins) (Homo sapiens) for item Cc1ccc(F)c([C@@H](C)[C@H](NS(=O)(=O)c2cc(C(C)(C)O)c(Cl)cc2C(N)=O)c2n[nH]c(=O)o2)c1C = 7.22

Here CC#CC(O)(C#CC)c1ccc(C(N)=O)c(S(=O)(=O)N[C@H](c2n[nH]c(=O)o2)[C@H](C)c2c(F)ccc(C)c2C)c1 was tested on human RNR (histidine tagged human M1 and human M2 proteins) (Homo sapiens), and its pIC50 came to 6.46

Per the reported human RNR (histidine tagged human M1 and human M2 proteins) (Homo sapiens) data, Cc1ccc(F)c([C@@H](C)[C@H](NS(=O)(=O)c2ccc(Br)cc2C(N)=O)c2n[nH]c(=O)o2)c1C has pIC50 of 7.22

Assay human RNR (histidine tagged human M1 and human M2 proteins) (Homo sapiens), sample Cc1ccc(F)c([C@@H](C)[C@H](NS(=O)(=O)c2cc(F)c(Cl)cc2C(N)=O)c2n[nH]c(=O)o2)c1C , pIC50 read: 6.92

Cc1ccc(S(=O)(=O)N[C@H](c2n[nH]c(=O)o2)[C@H](C)c2c(F)ccc(C)c2C)c(C(N)=O)c1 tested on human RNR (histidine tagged human M1 and human M2 proteins) (Homo sapiens) gave pIC50: 6.85

Simply: Cc1c(Cl)ccc(F)c1[C@@H](C)[C@H](NS(=O)(=O)c1ccc(Cl)c2c1OCCC2(C)N)c1n[nH]c(=O)o1 (mixture of isomers) [Example 328] , human RNR (histidine tagged human M1 and human M2 proteins) (Homo sapiens), pIC50 = 6.96

Recorded pIC50 for CC(=O)OC1(C(F)(F)F)CCOc2c(S(=O)(=O)N[C@H](c3n[nH]c(=O)o3)[C@H](C)c3c(F)ccc(C)c3C)ccc(Cl)c21 (stereo partly shown) on human RNR (histidine tagged human M1 and human M2 proteins) (Homo sapiens) was 6.96

Tested on human RNR (histidine tagged human M1 and human M2 proteins) (Homo sapiens), the item [2H]C([2H])([2H])C1(O)CCOc2c(S(=O)(=O)N[C@H](c3n[nH]c(=O)o3)[C@H](C)c3c(F)ccc(Br)c3C)ccc(Cl)c21 (single isomer, unassigned) [Example 226A] showed pIC50 equal to 7.30

Item Cc1c(Br)ccc(F)c1[C@@H](C)[C@H](NS(=O)(=O)c1ccc(Br)cc1C(N)=O)c1n[nH]c(=O)o1 was tested on human RNR (histidine tagged human M1 and human M2 proteins) (Homo sapiens); the reported pIC50 is 6.89

Cc1cc(F)cc([C@@H](C)[C@H](NS(=O)(=O)c2ccc(Cl)cc2C(N)=O)c2n[nH]c(=O)o2)c1C tested on human RNR (histidine tagged human M1 and human M2 proteins) (Homo sapiens) gave pIC50: 6.35

Reported human RNR (histidine tagged human M1 and human M2 proteins) (Homo sapiens) pIC50 for item Cc1ccc(F)c([C@@H](C)[C@H](NS(=O)(=O)c2ccc(Cl)c3c2OCC(=O)N3C)c2n[nH]c(=O)o2)c1C was 7.00

The reported human RNR (histidine tagged human M1 and human M2 proteins) (Homo sapiens) pIC50 of Cc1ccc(F)c([C@@H](C)[C@H](NS(=O)(=O)c2ccc3c(c2)N(C)CCC3)c2n[nH]c(=O)o2)c1C is 6.66

Reported human RNR (histidine tagged human M1 and human M2 proteins) (Homo sapiens) pIC50 for item C[C@H](c1c(F)ccc2ccccc12)[C@H](NS(=O)(=O)c1ccc(Cl)c2c1OCCC2O)c1n[nH]c(=O)o1 (single isomer, unassigned) [Example 234A] was 6.51

Summary line: COC(=O)c1c(F)ccc(S(=O)(=O)N[C@H](c2n[nH]c(=O)o2)[C@H](C)c2c(F)ccc(C)c2C)c1F , human RNR (histidine tagged human M1 and human M2 proteins) (Homo sapiens), reported pIC50 = 6.77

Reported pIC50 (human RNR (histidine tagged human M1 and human M2 proteins) (Homo sapiens)) for entry Cc1ccc(F)c([C@@H](C)[C@H](NS(=O)(=O)c2ncc(Cl)cc2C(=O)O)c2n[nH]c(=O)o2)c1C is 6.30

Reading of pIC50 for Cc1cccc([C@@H](C)[C@H](NS(=O)(=O)c2ccc(Br)cc2C(N)=O)c2n[nH]c(=O)o2)c1C with human RNR (histidine tagged human M1 and human M2 proteins) (Homo sapiens): 6.42

Assay human RNR (histidine tagged human M1 and human M2 proteins) (Homo sapiens), sample Cc1ccc(F)c([C@@H](C)[C@H](NS(=O)(=O)c2cc(C(=O)N3CCOCC3)ccc2C(N)=O)c2n[nH]c(=O)o2)c1C , pIC50 read: 6.96

###

Biological target: human RNR (histidine tagged human M1 and human M2 proteins) (Homo sapiens, UniProt P23921)
Sequence (P23921 1-792): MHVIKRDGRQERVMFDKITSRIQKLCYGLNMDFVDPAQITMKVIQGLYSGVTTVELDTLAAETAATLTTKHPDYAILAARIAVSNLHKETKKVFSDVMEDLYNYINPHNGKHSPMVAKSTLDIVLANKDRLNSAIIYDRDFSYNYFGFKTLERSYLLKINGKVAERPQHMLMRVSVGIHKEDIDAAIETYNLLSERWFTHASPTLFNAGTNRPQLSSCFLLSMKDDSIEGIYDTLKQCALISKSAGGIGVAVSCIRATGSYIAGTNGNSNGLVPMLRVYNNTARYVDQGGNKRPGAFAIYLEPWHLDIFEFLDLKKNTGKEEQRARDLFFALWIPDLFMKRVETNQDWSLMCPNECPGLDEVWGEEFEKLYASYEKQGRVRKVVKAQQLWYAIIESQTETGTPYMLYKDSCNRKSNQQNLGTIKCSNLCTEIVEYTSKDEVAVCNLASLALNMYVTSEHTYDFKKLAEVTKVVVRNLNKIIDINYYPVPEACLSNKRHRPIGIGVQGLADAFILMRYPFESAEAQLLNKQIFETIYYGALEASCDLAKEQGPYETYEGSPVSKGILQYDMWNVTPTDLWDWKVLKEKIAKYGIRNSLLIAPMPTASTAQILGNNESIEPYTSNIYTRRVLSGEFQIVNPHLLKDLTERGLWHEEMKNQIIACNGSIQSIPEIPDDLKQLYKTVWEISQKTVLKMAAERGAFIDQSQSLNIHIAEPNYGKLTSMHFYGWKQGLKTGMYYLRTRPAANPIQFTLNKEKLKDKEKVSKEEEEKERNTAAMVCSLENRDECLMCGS
pIC50: −log10 of the molar value.
Rule: pIC50 of 7 or more gives Yes; anything lower gives No.

In plain terms: is recorded pIC50 at least 7 for Cc1ccc(F)c([C@@H](C)[C@H](NS(=O)(=O)c2ccc(Cl)cc2N)c2n[nH]c(=O)o2)c1C ? No

Textbook exercise: given the entry COc1cc(Cl)ccc1S(=O)(=O)N[C@H](c1n[nH]c(=O)o1)[C@H](C)c1c(F)ccc(-c2cc(F)cc(F)c2)c1C , state whether its pIC50 is greater than or equal to 7. No

Given the entry CC(=O)OC1(C)CCOc2c(S(=O)(=O)N[C@H](c3n[nH]c(=O)o3)[C@H](C)c3c(F)ccc(Cl)c3C)ccc(Cl)c21 (stereo partly shown) , answer whether its pIC50 meets or surpasses 7. No

Answer whether pIC50 of COC(=O)c1nc(S(=O)(=O)N[C@H](c2n[nH]c(=O)o2)[C@H](C)c2c(F)ccc(C)c2C)ccc1Cl is greater than or equal to 7. Yes

Reported pIC50 reaches at least 7 for COc1cc(Cl)ccc1S(=O)(=O)N[C@H](c1n[nH]c(=O)o1)[C@H](C)c1c(F)ccc(-c2cnc3c(c2)OCCN3C)c1C ? No

hey, is pIC50 for this one >= 7? COc1cc(Cl)ccc1S(=O)(=O)N[C@H](c1n[nH]c(=O)o1)[C@H](C)c1c(F)ccc(-c2cc[nH]n2)c1C No

# check: pIC50 of COc1cc(C(N)=O)ccc1S(=O)(=O)N[C@H](c1n[nH]c(=O)o1)[C@H](C)c1c(F)ccc(C)c1C is greater than or equal to 7 No

Does Cc1ccc(F)c([C@@H](C)[C@H](NS(=O)(=O)c2ccc(Cl)c(C(=O)N3CCOCC3)n2)c2n[nH]c(=O)o2)c1C have a reported pIC50 of at least 7? Yes

Determine whether measured pIC50 meets or exceeds 7 for Cc1ccc(F)c([C@@H](C)[C@H](NS(=O)(=O)c2c(F)cc(F)c3c2OCCC3O)c2n[nH]c(=O)o2)c1C (stereo partly shown) No

Check this molecule for pIC50 at or above 7: Cc1cccc2cccc([C@@H](C)[C@H](NS(=O)(=O)c3ccc(Cl)c4c3OCCC4(F)F)c3n[nH]c(=O)o3)c12 No
